target: RUNX1 (UniProt Q01196); experiment: RUNX1 binding intensity (PBM fluorescence), RUNX1 alone (arbitrary fluorescence units); higher = stronger binding; conditions: RUNX1 concentration 2 nM; ETS1 concentration 0 nM
Sequence (Q01196 whole entry): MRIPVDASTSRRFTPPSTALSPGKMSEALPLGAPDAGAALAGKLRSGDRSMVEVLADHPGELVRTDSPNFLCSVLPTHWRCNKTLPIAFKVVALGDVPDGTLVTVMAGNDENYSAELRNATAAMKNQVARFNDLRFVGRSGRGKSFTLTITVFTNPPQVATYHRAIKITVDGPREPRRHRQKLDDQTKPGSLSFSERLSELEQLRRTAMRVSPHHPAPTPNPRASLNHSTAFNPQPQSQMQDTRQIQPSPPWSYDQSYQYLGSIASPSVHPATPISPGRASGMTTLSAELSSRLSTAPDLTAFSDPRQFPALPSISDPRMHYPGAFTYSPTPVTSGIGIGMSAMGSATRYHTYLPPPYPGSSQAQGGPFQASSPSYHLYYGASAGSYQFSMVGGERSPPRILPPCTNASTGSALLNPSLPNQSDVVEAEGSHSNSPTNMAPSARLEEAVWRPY
sequences and their reported RUNX1 binding intensity
property: RUNX1 binding intensity

record_sequence=TCAATAAGACAGGATGTTCTCCAACCGCATTAAGCT experimental_target="RUNX1 (UniProt Q01196)" readout_value=854
record_sequence=GTGGGGCAGGATGTGCTTGCCTGGCTGCGGTTGGAC experimental_target="RUNX1 (UniProt Q01196)" readout_value=877
record_sequence=TTCAATCACAGGAAACAGACGTCACCCACAGACCTA experimental_target="RUNX1 (UniProt Q01196)" readout_value=794
record_sequence=CACGGAGCCACTTCCGGCGGCTGTGGGCGCAAAACC experimental_target="RUNX1 (UniProt Q01196)" readout_value=752
record_sequence=GGCCTGTCACACACAGGAAGCGGTCACAGAAAAGCT experimental_target="RUNX1 (UniProt Q01196)" readout_value=795
record_sequence=CAGCTGCTGACAGGAAAACCACAGTGGAAGGGGAAG experimental_target="RUNX1 (UniProt Q01196)" readout_value=898

====

molecular target: RUNX1 (UniProt Q01196); assay: TF binding intensity (PBM fluorescence), negative control probe (arbitrary fluorescence units); higher = stronger binding
sequences and their reported TF binding intensity
property: TF binding intensity

record_sequence="TTGCCCGTCACTTGAGTTCCGCCTCCTCTGCTCCTC (protein concentration 2 nM)" property="TF binding intensity" readout_value=922
record_sequence="TGAAAAAGGGGAGGGCGGAAGTGACGAGCCGTAGCC (protein concentration 2 nM)" property="TF binding intensity" readout_value=891
record_sequence="TCTCGCCCCTCATCCCGGAAAGGAAGACTCTGAATG (protein concentration 2 nM)" property="TF binding intensity" readout_value=891

====

target: RUNX1 (UniProt Q01196); assay: RUNX1 binding intensity (PBM fluorescence), RUNX1 alone (arbitrary fluorescence units); higher = stronger binding; settings: RUNX1 concentration 2 nM; ETS1 concentration 0 nM
property: RUNX1 binding intensity

record_sequence=AGCTGCTGTTTTCCGGCTGCGGCACTGGATGAAGGA readout_value=711
record_sequence=TCCTAAAGCAGGAAATAGTGAGGCTACCGCAGTGTC readout_value=713
record_sequence=ATCACAAGCAGAGGATGTGGTTAGTGTTTCGTTCCA readout_value=995
record_sequence=CTCATCAGTCATCCGGCTGGACCGCAGGAGCTCTCC readout_value=933
record_sequence=TATCTCCTATCTCCAGGAAGTGGTTAGCCCTAGGAG readout_value=811
record_sequence=CGCCGCTCAACTTCCGGCAACCACAGCTCTCTCTGA readout_value=1070
record_sequence=GTTGGGCTTTGAGGATGTGGGTTCTAGAAGTTTACA readout_value=890
record_sequence=AACCCGGAAGTGGACACGGAGCTCGGCTGCGGCTCC readout_value=705
record_sequence=AGCCCGCCGGAAACTAGCGTCACCGCGCCAAGGTTC readout_value=691
record_sequence=GCAGAGAGGAGGGGATGTGGTTTCACAGCTTGCTCC readout_value=835
record_sequence=GTTCTCCACATCCTGTTCCGTAGCTGTGGTGCACCG readout_value=3060
record_sequence=TGATGCACTTCCTGAGGGCCCGCATGTGGTAAACAC readout_value=834

====

sequences and their reported ETS1 binding intensity
Target: ETS1 (UniProt P14921)
Sequence: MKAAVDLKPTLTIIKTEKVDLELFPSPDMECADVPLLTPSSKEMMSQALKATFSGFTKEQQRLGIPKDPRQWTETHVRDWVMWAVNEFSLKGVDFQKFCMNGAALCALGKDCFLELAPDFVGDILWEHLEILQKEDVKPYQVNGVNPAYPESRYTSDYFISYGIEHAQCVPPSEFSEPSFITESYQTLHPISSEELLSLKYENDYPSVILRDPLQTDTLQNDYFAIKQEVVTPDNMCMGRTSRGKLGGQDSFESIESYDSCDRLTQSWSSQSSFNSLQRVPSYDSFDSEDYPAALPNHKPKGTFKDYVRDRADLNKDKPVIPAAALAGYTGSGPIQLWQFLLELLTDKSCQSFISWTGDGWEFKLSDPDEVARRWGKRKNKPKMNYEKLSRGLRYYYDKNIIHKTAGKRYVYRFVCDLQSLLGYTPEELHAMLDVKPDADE
Assay: ETS1 binding intensity (PBM fluorescence), ETS1 alone (arbitrary fluorescence units); higher = stronger binding
Conditions: ETS1 concentration 1 nM; RUNX1 concentration 0 nM
property: ETS1 binding intensity

record_sequence=AGGCTCATTTCCTGTTTTCATGTGGTTTAGAGAAAA experimental_target="ETS1 (UniProt P14921)" readout_value=2630
record_sequence=AGACCCGGATATGCGCCGGGGACCCCCAGACCGCGC experimental_target="ETS1 (UniProt P14921)" readout_value=743
record_sequence=CAGGGAAGTTCGAACTGGGCGGGGCCCACCGCAGTT experimental_target="ETS1 (UniProt P14921)" readout_value=336
record_sequence=GCGCAAGCAGGAAGCGTTTGCGGTGATCCCGGCGAC experimental_target="ETS1 (UniProt P14921)" readout_value=1890
record_sequence=GAGGCAGGCGGATGTCAGTGTGGTTAGAGCACAGTG experimental_target="ETS1 (UniProt P14921)" readout_value=1170
record_sequence=ACAGCATTTCCTGGTGGCCAGATATCTGAGGTTTCA experimental_target="ETS1 (UniProt P14921)" readout_value=426
record_sequence=GATGAAAGAGGAAGTTCTCAAACCACCTTGCCAGTG experimental_target="ETS1 (UniProt P14921)" readout_value=1170
record_sequence=CCATCCAGGAAGCTTATGGTGCGACCGCAGTGTGCC experimental_target="ETS1 (UniProt P14921)" readout_value=508
record_sequence=CAGAGAAACAGGAAGAACAGTGGTTTCAACTGAAAT experimental_target="ETS1 (UniProt P14921)" readout_value=1310
record_sequence=CCTCCTCTTCCTCCCCACTCTGCACATGCGGCTGGG experimental_target="ETS1 (UniProt P14921)" readout_value=520
record_sequence=GCCTGAAGGACTTCCGGGAACCGCAAAGCACGGTGT experimental_target="ETS1 (UniProt P14921)" readout_value=1620
record_sequence=GTGGGGCGGGCTTCCGGCGCTCCCACCGCGAGCCGA experimental_target="ETS1 (UniProt P14921)" readout_value=921
record_sequence=GACGGGATGTAGGTTTTCAGCCGTGGCCACAGGAGA experimental_target="ETS1 (UniProt P14921)" readout_value=496
